- Test system: HOP-92 NSCLC
- Test description: NCI-60 one-dose screen, 48 h (100 = growth as untreated, 0 = no growth, -100 = all killed)
- Test parameters: 10 µM unless noted
About 83,000 compounds went through this panel and 20% of them were active in at least one assay; those are over-represented in the sample as a whole.
So basically: is growth under 60%? Then Met. Not under? Then Not met.

Below, 4 molecules whose answers are already recorded.
Molecule	Assay target	Class label
C#CCN(CCCOc1ccc(Cl)cc1Cl)CCCSC(=O)CCCCCN1/C(=C\C=C2/CCCC(/C=C/C3=[N+](CCCCCC(=O)[O-])c4ccccc4C3(C)C)=C2Cl)C(C)(C)c2ccccc21	HOP-92 NSCLC	Met
CCCCCCN1C(=O)CN=C1Nc1ccc2cc3ccc(NC4=NCC(=O)N4CCCCCC)cc3nc2c1	HOP-92 NSCLC	Not met
C=C1C(=O)O[C@H]2[C@H]1CC/C(C=Nc1c(N)cc(C(F)(F)F)cc1Br)=C\CC[C@@]1(C)O[C@@H]21	HOP-92 NSCLC	Met
CCOC(=O)/C=C1\SC(=Nc2ccc(C#N)cc2)N(CCN2C(=O)/C(=C/C(=O)OCC)SC2=Nc2ccc(C#N)cc2)C1=O	HOP-92 NSCLC	Not met

QUERY: Quick check: growth of "COC(=O)c1ccc2c(c1)n(Cc1ccc3ccccc3c1)c[n+]2Cc1ccc2ccccc2c1" under 60%?
RESULT: Met

QUERY: Next up: "COc1cccc2c1-c1ccccc1C2=O"
RESULT: Not met

QUERY: Next up: "Sc1cccc2cccnc12"
RESULT: Not met

QUERY: Next up: "CC(=O)[C@@H]1CC[C@]2(C(=O)O)CC[C@]3(C)[C@H](CC[C@@H]4[C@@]5(C)Cc6c([nH]c7ccccc67)C(C)(C)[C@@H]5CC[C@]43C)[C@@H]12"
RESULT: Not met

QUERY: Next up: COc1ccc(C2CC(c3ccc(OC)cc3O)=NN2c2ccc(S(N)(=O)=O)cc2)cc1 (stereo not drawn)
RESULT: Met

QUERY: Next up: "O=C(Nc1cc(Nc2ncccc2-c2ncnc3nc[nH]c23)ccc1F)c1cc(C(F)(F)F)cc(C(F)(F)F)c1"
RESULT: Met

QUERY: Next up: Cc1nc2sc(C(=O)Nc3ccccc3)c(N)c2cc1C(C)O (stereo not drawn)
RESULT: Not met

QUERY: Next up: "CCOC(=O)c1c(C(F)(F)F)n([O-])c2ccc(Cl)cc2[n+]1=O"
RESULT: Met

QUERY: Next up: OCCNc1nc(NCCO)nc(Nc2ccc(C3=NN(c4ccc(Cl)cc4)C(c4ccc(Cl)cc4)C3)cc2)n1 (stereo not drawn)
RESULT: Not met

QUERY: Next up: "COc1ccccc1N1CCN(CCCOc2ccc(C(=O)/C=C3/C(=O)Nc4ccccc43)cc2)CC1"
RESULT: Met

QUERY: Next up: "COc1ccc2c(c1)/C(=C1\S/C(=N/c3nnc(C)s3)NC1=O)C(=O)N2Cc1ccc(Cl)cc1"
RESULT: Met

QUERY: Next up: CCCCC1=c2c([nH]c3ccc(OC)cc23)=NC2C=CC=NC12 (stereo not drawn)
RESULT: Not met

QUERY: Next up: "Cc1ccc(C2=N[C@H]3CCC[C@@H]3N(c3ccccc3)C(C(Cl)Cl)=N2)cc1"
RESULT: Not met
